# method description: amyloid nucleation score (Sup35N fusion, yeast selection) (log enrichment); library NNK3; higher = more nucleation; inactive = no reads after selection;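 further: zero at mode of non-aggregating sequences after 7 days selection at 30°C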

{"columns": ["substance", "amyloid nucleation score"],
 "data": [
  ["VLTFNKGFFGC", 1.26],
  ["YVNRYLLYFSFFTFANMCGS", 2.05],
  ["RVHFVYIRWFYVRRDGWFSG", "inactive"],
  ["MLLIVTSCYISAPNAVSPGW", -0.563],
  ["RKIHVAMVLRIEYSMYGSPA", "inactive"],
  ["NSGNSIAVAAALDKDTLQAG", "inactive"],
  ["IWIMLHSCELWYADKADLDG", "inactive"],
  ["CAHVSFKLVFSINWWSNLLN", "inactive"],
  ["NNYSPLFRTTAGYSSHFTRQ", "inactive"],
  ["PLIYSTLNCKRM", "inactive"],
  ["NTLDDDFRISPDATVYSVYW", "inactive"],
  ["MVMQIYIDDRPSMKVLYSEM", 0.485],
  ["FFTMSKI", "inactive"],
  ["LSSWEIVSSLSHWNVYVIAR", "inactive"],
  ["LSLVCNCRSTCNCPGLSL", "inactive"],
  ["WFTVHLIVCSVRRLDSFVLP", "inactive"],
  ["GGCHNGCGFYCRRN", "inactive"],
  ["LDLSLMHGMFTYFGVHMMMP", "inactive"],
  ["VIGRVRIGLVFRSTIGFSEG", "inactive"],
  ["NDYGDGVSHLMGTGTPTSLW", "inactive"],
  ["NLGKTLNTLYLVFTFRDVF", "inactive"],
  ["VYQLIYVTGCQNAVRE", 0.674],
  ["DKFLFLCMG", "inactive"],
  ["KDCASGSRSTAIFAFCSGAF", 0.281],
  ["WFVRIIQLIT", "inactive"],
  ["RSELASLKGCDIELVFTYQR", "inactive"],
  ["SMNTHGCFYRRYLSESPFEC", "inactive"],
  ["INNAPFNLPLANK", "inactive"],
  ["KFGDPIRFWVTYYTNRSWSG", -0.732],
  ["TTLQEDGYRDACGYMASVFW", "inactive"],
  ["VNGLLAIRVYCKHWP", "inactive"],
  ["NWENILGDSYLCVKWSL", "inactive"],
  ["AFFPHELRDMFRSNLYCCYA", "inactive"],
  ["RWKMTCFSSYNG", "inactive"],
  ["AGKSLLRVQYP", "inactive"],
  ["LCLGFVHPVIPFWIAML", "inactive"]
]}

* * *

# method description: amyloid nucleation score (Sup35N fusion, yeast selection) (log enrichment); library NNK2; higher = more nucleation; inactive = no reads after selection
Kindly return True if reported amyloid nucleation score is no lower than 0.4; return False if it is lower.

{"columns": ["substance", "classification"],
 "data": [
  ["GECHEWV", "False"],
  ["SLGIQRARNAMSNTPFALGS", "True"],
  ["LFESMPGCDDSNELIFWGIA", "False"],
  ["SFGDTSKRWLFAVGGCKCRL", "False"],
  ["YTPHYLQCRLFCIPLRLNRS", "False"],
  ["LVPPVLGAHVSNKVDVILHA", "False"],
  ["EVVLFF", "False"],
  ["DLYRYNMLKDVV", "True"],
  ["CFFLTHCRDIRNVSTV", "False"],
  ["YHFFKCRPCSFSWLITGMVK", "False"],
  ["FYCSNSYYNVRIDRQNYCQM", "True"],
  ["SNPSVNLCRWIDACNSDLIT", "False"],
  ["FKLFMLSSFSLMM", "False"],
  ["VILVSVASINSRCVIGFSKF", "True"],
  ["RYFINSMFLGWTPFVSVNLS", "False"],
  ["RASASNR", "False"],
  ["RYQFSATPGVVRWKFEEYSD", "False"],
  ["ARNSVKHSFFQVRRLHGSWD", "False"],
  ["LGSRGSRSIAESFAGKIRI", "False"],
  ["WSFLYE", "False"],
  ["IIPFRRSTVRLVRCLWISGL", "True"],
  ["AIRRPDRSQFLAYLVSSCKF", "False"],
  ["TLATTGTHCVYYKNSWCKFR", "False"],
  ["SNYHSGRVKGGDVGVYIS", "True"],
  ["TLWLMPDLRTRLEAGCRYKT", "False"],
  ["STSVWRGLSRPRNVQRRLDT", "False"],
  ["HRWVVWEYTGLAFYLAALEY", "False"],
  ["YAFSMDRWVDLMLFQRV", "True"],
  ["VRFYVCLFLRNEMKVGRMTW", "True"],
  ["RYTCRLFTDTYDSSVVLGAM", "True"],
  ["WTPTVFVDMHPSNGLVDILY", "False"]
]}

* * *

Listed below: amyloid nucleation score values for each entry.
# method description: amyloid nucleation score (Sup35N fusion, yeast selection) (log enrichment); library NNK1; higher = more nucleation; inactive = no reads after selection
quantity kind: amyloid nucleation score

{"columns": ["record sequence", "quantity kind", "measurement"],
 "data": [
  ["MTVYLITNRHLR", "amyloid nucleation score", 0.905],
  ["FATMGSKKCSGARHSKRGSC", "amyloid nucleation score", -0.26],
  ["GSSQWFRQVLYFRQSPGWGS", "amyloid nucleation score", -0.33],
  ["DATVQTWGDVKSGLWWVCCP", "amyloid nucleation score", 5.62],
  ["QELWHMYSIYYVFRTGDHIY", "amyloid nucleation score", -0.163],
  ["VYPCACVFYSLGVGLQNEET", "amyloid nucleation score", 6.27],
  ["LGKIAQLYSEEVEQKSGSGV", "amyloid nucleation score", -0.539],
  ["ERAQYMSRTVRRVSFKSFFC", "amyloid nucleation score", 3.55],
  ["RWYVEPSSMFLSRLDGLFYK", "amyloid nucleation score", -0.702],
  ["EYIMYYWIRIVYFVINGYLV", "amyloid nucleation score", 0.534],
  ["PTYIKLILTAHYLSEFRSNV", "amyloid nucleation score", 1.02],
  ["LGRHLMILTYQYEEDFPKYR", "amyloid nucleation score", 0.938],
  ["VRFKGMWHKQ", "amyloid nucleation score", -1.04],
  ["GGSYKEYTLCKHTAP", "amyloid nucleation score", 0.506]
]}

* * *

# method description: amyloid nucleation score (Sup35N fusion, yeast selection) (log enrichment); library NNK2; higher = more nucleation; inactive = no reads after selection
Output schema: class label derived from amyloid nucleation score. Mapping: group 1: < -0.06; group 2: ≥ -0.06 and < 1; group 3: ≥ 1

{"columns": ["substance", "classification"],
 "data": [
  ["NVSRGTKIDNMDRVYFYPEA", "group 2"],
  ["SPMNDLY", "group 2"],
  ["FSCFIIYVGQKTACNSNTAL", "group 3"],
  ["HLGSDRGDAWVANVKPERWD", "group 3"],
  ["HYSMHVNGDTAAGTYAQAFC", "group 1"],
  ["SYDSPPSEHLVPVAQSISVP", "group 3"],
  ["IIRPVFILNLPYLFRCVG", "group 2"],
  ["KMAIGLCVSTLQ", "group 2"],
  ["GFQWLDAYLLGSFWMRMSTC", "group 2"],
  ["NFADWTCFDIQVR", "group 1"],
  ["IVISWIPDNPNQMDALCRRY", "group 2"],
  ["SLAFYTTYNNKILGNS", "group 3"],
  ["LTDSKSALRLAMR", "group 3"],
  ["MSQGSKIRVTWARSGGTRRL", "group 3"],
  ["VFSNWVNVVWS", "group 3"],
  ["RSLSNMCN", "group 1"],
  ["VSVDGKLRFRPT", "group 2"],
  ["TAKDTPCAVRIIFEFLDGLV", "group 3"],
  ["EESFYTTPLSVFCVNLRYIV", "group 1"],
  ["DIVNLSEDGLSSNELFIARM", "group 1"],
  ["YSDKHM", "group 1"],
  ["NDSTLGRLSYNLRDLRSQKM", "group 1"],
  ["VVNDIATLLRVMNEYYAESA", "group 1"],
  ["GWVNRIYTRQLECSSLEYFF", "group 3"],
  ["SVGVTVSRVASREGSSRSRA", "group 2"],
  ["RCFSRNFEECFENAYTWV", "group 1"],
  ["VGVLSEDIYCSAQPYLGRSG", "group 2"],
  ["HRSLIIF", "group 3"],
  ["SVGIVSSDRCLCLMSM", "group 3"]
]}

* * *

# method description: amyloid nucleation score (Sup35N fusion, yeast selection) (log enrichment); library NNK1; higher = more nucleation; inactive = no reads after selection
# label = class 1 if amyloid nucleation score >= 1 else class 0

{"columns": ["substance", "classification"],
 "data": [
  ["TDEGLVCHK", "class 0"],
  ["HLSLPNVPVALWKRSRPVTM", "class 1"],
  ["WSFLDWWIRSRSLITVCVVS", "class 0"],
  ["VSCMRDIIRLCYQQTPICKF", "class 0"],
  ["CWYLYRFSNTMMNRTTLPCG", "class 0"],
  ["YYVVVFVANAVFPQYPDPRN", "class 1"],
  ["EFWGVSLLVFVFCELIGIFC", "class 0"],
  ["PTVLTVLFNRPFRSCN", "class 0"],
  ["GSRNNWKTPWSDNHGTLWRC", "class 0"],
  ["SVLVWADLCHDTEA", "class 0"],
  ["MRLWLIWYISVMLTQNPRLW", "class 1"],
  ["NRTDKKDTLRWLFPT", "class 0"],
  ["IIILYMLRPAMSGWDVFACC", "class 0"],
  ["MCCCLDDEGDHLNWFKRLRC", "class 1"],
  ["VFFGLTICFFVAHHCQERGS", "class 1"]
]}

Origin of values: the supplement of paper PMC12042874
